experiment: Chimpanzee pharmacokinetics, i.v. infusion; type: in vivo, chimpanzees; details: in vivo, iv; female chimpanzees, single 1 mg/kg i.v. infusion (1 h), plasma, LC-MS/MS, noncompartmental, n = 2
Starred links: 1 amine or outer side, 2 acyl side, 3 side chain; linkers in the order of their positions; H or OH if unused. Positions of bridges follow the written chain, without caps; N, C: chain ends. Non-standard residues stand in square brackets, D forms with d. Residues, ends and D or L forms follow the SMILES beside them. *: point of attachment. Orn(4R-OH,5R-OCH2CH2NMe3+) = C[N+](C)(C)CCO[C@@H](N[*:3])[C@H](O)C[C@H](N[*:1])C(=O)[*:2]; pTerphenylCO(4''-OnC5H11) = CCCCCOc1ccc(-c2ccc(-c3ccc(C(=O)*)cc3)cc2)cc1; hTyr(3S-OH,4S-OH) = N[C@H](C(=O)O)[C@H](O)[C@@H](O)c1ccc(O)cc1; Pro(3S-OH,4S-Me) = C[C@H]1CN[C@H](C(=O)O)[C@H]1O; Hyp = O=C(O)[C@@H]1C[C@@H](O)CN1
measurement-name: Tmax (h)
Value expressed in h; do not type the unit.

Q. Which value of Tmax has been reported for CCCCCOc1ccc(-c2ccc(-c3ccc(C(=O)N[C@H]4C[C@@H](O)[C@@H](OCC[N+](C)(C)C)NC(=O)[C@@H]5[C@@H](O)[C@@H](C)CN5C(=O)[C@H]([C@@H](C)O)NC(=O)[C@H]([C@H](O)[C@@H](O)c5ccc(O)cc5)NC(=O)[C@@H]5C[C@@H](O)CN5C(=O)[C@H]([C@@H](C)O)NC4=O)cc3)cc2)cc1 [CD101] ({pTerphenylCO(4''-OnC5H11)}-[Orn(4R-OH,5R-OCH2CH2NMe3+)]T[Hyp][hTyr(3S-OH,4S-OH)]T[Pro(3S-OH,4S-Me)]; lactam 1-C) in the records?
A. 1

====

Assay: Mouse pharmacokinetics, i.v. bolus
Settings: in vivo, iv, male ICR (CD-1) mice, single 1 mg/kg slow i.v. bolus, plasma, LC-MS/MS, noncompartmental from mean profile, n = 3/time point
Description: A single 1-mg/kg dose of CD101 or anidulafungin was administered by slow i.v. bolus (∼2 min) to male ICR (CD-1) mice (n = 3/group/time point). […] For each of the pharmacokinetic studies, whole-blood samples (K3EDTA as anticoagulant) were collected and centrifuged within 30 min of collection. […] When necessary, dilutions with blank matrix were made for samples that quantified above the upper limit of quantitation. […]
Starred links: 1 amine or outer side, 2 acyl side, 3 side chain; linkers in the order of their positions; H or OH if unused. Positions of bridges follow the written chain, without caps; N, C: chain ends. Non-standard residues stand in square brackets, D forms with d. Residues, ends and D or L forms follow the SMILES beside them. *: point of attachment. Orn(4R-OH,5R-OCH2CH2NMe3+) = C[N+](C)(C)CCO[C@@H](N[*:3])[C@H](O)C[C@H](N[*:1])C(=O)[*:2]; pTerphenylCO(4''-OnC5H11) = CCCCCOc1ccc(-c2ccc(-c3ccc(C(=O)*)cc3)cc2)cc1; hTyr(3S-OH,4S-OH) = N[C@H](C(=O)O)[C@H](O)[C@@H](O)c1ccc(O)cc1; Pro(3S-OH,4S-Me) = C[C@H]1CN[C@H](C(=O)O)[C@H]1O; Hyp = O=C(O)[C@@H]1C[C@@H](O)CN1
measurement-name: Tmax (min)
Value expressed in min; do not type the unit.

Q. Which value of Tmax has been reported for CCCCCOc1ccc(-c2ccc(-c3ccc(C(=O)N[C@H]4C[C@@H](O)[C@@H](OCC[N+](C)(C)C)NC(=O)[C@@H]5[C@@H](O)[C@@H](C)CN5C(=O)[C@H]([C@@H](C)O)NC(=O)[C@H]([C@H](O)[C@@H](O)c5ccc(O)cc5)NC(=O)[C@@H]5C[C@@H](O)CN5C(=O)[C@H]([C@@H](C)O)NC4=O)cc3)cc2)cc1 [CD101] ({pTerphenylCO(4''-OnC5H11)}-[Orn(4R-OH,5R-OCH2CH2NMe3+)]T[Hyp][hTyr(3S-OH,4S-OH)]T[Pro(3S-OH,4S-Me)]; lactam 1-C) in the records?
A. 4.98
